tested on: Escherichia coli ATCC 8739; experiment: Antimicrobial disk susceptibility test (CLSI M2-A9), E. coli; assay type: cell-based; conditions: 10 μg/disk, duplicate a)
size of the inhibition zone, E. coli a) values by entry

>>> print(df.to_string())
                                   molecule                          measurementkind  result
0  CCC1OC(=O)C(C)C(OC2CC(C)(OC)CC(C)O2)C(C)C(OC2OC(C)CC(N(C)C)C2C)C(C)(O)CC(C)CN(C)C(C)C(O)C1(C)O (stereo not shown)  size of the inhibition zone, E. coli a)   <1 mm
1  CCC1OC(=O)C(C)C(OC2CC(C)(OC)CC(C)O2)C(C)C(OC2CC(N(C)C)CC(C)O2)C(C)(O)CC(C)CN(C)C(C)C(O)C1(C)O (stereo not shown)  size of the inhibition zone, E. coli a)   <1 mm
2  CCC1OC(=O)C(C)C(OC2CC(C)(OC)C(C)C(C)O2)C(C)C(OC2CC(N(C)C)CC(C)O2)C(C)(O)CC(C)CN(C)C(C)C(O)C1(C)O (stereo not shown)  size of the inhibition zone, E. coli a)   <1 mm

Below: the item to evaluate.
Please indicate recorded size of the inhibition zone, E. coli a) of CCC1OC(=O)C(C)C(OC2CC(C)(OC)C(C)C(C)O2)C(C)C(OC2OC(C)CC(N(C)C)C2C)C(C)(O)CC(C)CN(C)C(C)C(O)C1(C)O (stereo not shown) measured with Escherichia coli ATCC 8739.
<1 mm

---

Test system: Staphylococcus aureus ATTC 6538
Assay: Antimicrobial disk susceptibility test (CLSI M2-A9), S. aureus
Type: cell-based
Settings: Staphylococcus aureus, ATTC6538; 5 μg/disk, duplicate b); read-out: size of the inhibition zone, S. aureus b)
Protocol: Test for the antimicrobial activity of the novel compounds may be performed according to the standards of Clinical and Laboratory Standards Institute, Performance Standards for Antimicrobial Disk Susceptibility Tests; approved Standard; M2-A), vol. 26 NO. 1 9th ed. […] Two doses of the samples were tested in duplicate, a) and b). The size of the inhibition zones were measured in mm after incubation.
measurementKind: zone of inhibition at 5 µg/disc

Take a look at these entries with their results.
molecule	measurementKind	result
CC[C@H]1OC(=O)[C@H](C)C(O[C@H]2C[C@@](C)(OC)[C@@H](O)[C@H](C)O2)[C@H](C)[C@@H](OC2O[C@H](C)C[C@H](N(C)C)[C@H]2C)[C@](C)(O)C[C@@H](C)CN(C)[C@H](C)[C@@H](O)[C@]1(C)O (stereo partly shown) [PP001]	zone of inhibition at 5 µg/disc	< 1 mm
CC[C@H]1OC(=O)[C@H](C)C(O[C@H]2C[C@@](C)(OC)[C@@H](O)[C@H](C)O2)[C@H](C)[C@@H](OC2C[C@@H](N(C)C)C[C@@H](C)O2)[C@](C)(O)C[C@@H](C)CN(C)[C@H](C)[C@@H](O)[C@]1(C)O (stereo partly shown) [PP005]	zone of inhibition at 5 µg/disc	< 1 mm
CC[C@H]1OC(=O)[C@H](C)C(O[C@H]2C[C@@](C)(OC)C[C@H](C)O2)[C@H](C)[C@@H](OC2O[C@H](C)C[C@H](N(C)C)[C@H]2O)[C@](C)(O)C[C@@H](C)CN(C)[C@H](C)[C@@H](O)[C@]1(C)O (stereo partly shown) [PP004]	zone of inhibition at 5 µg/disc	< 1 mm

Please indicate recorded zone of inhibition at 5 µg/disc of CC[C@H]1OC(=O)[C@H](C)C(O[C@H]2C[C@@](C)(OC)[C@@H](C)[C@H](C)O2)[C@H](C)[C@@H](OC2O[C@H](C)C[C@H](N(C)C)[C@H]2O)[C@](C)(O)C[C@@H](C)CN(C)[C@H](C)[C@@H](O)[C@]1(C)O (stereo partly shown) [PP002] measured with Staphylococcus aureus ATTC 6538.
< 1 mm

---

tested on: Staphylococcus aureus ATTC 6538; experiment: Antimicrobial disk susceptibility test (CLSI M2-A9), S. aureus; type: cell-based; conditions: 5 μg/disk, duplicate b)
measurementKind: size of the inhibition zone, S. aureus b)

compound	result
CCC1OC(=O)C(C)C(OC2CC(C)(OC)C(C)C(C)O2)C(C)C(OC2CC(N(C)C)CC(C)O2)C(C)(O)CC(C)CN(C)C(C)C(O)C1(C)O (stereo not shown) [PP008]	<1 mm
CCC1OC(=O)C(C)C(OC2CC(C)(OC)C(C)C(C)O2)C(C)C(OC2OC(C)CC(N(C)C)C2C)C(C)(O)CC(C)CN(C)C(C)C(O)C1(C)O (stereo not shown) [PP003]	<1 mm
CCC1OC(=O)C(C)C(OC2CC(C)(OC)CC(C)O2)C(C)C(OC2OC(C)CC(N(C)C)C2C)C(C)(O)CC(C)CN(C)C(C)C(O)C1(C)O (stereo not shown) [PP007]	<1 mm

Below: the item to evaluate.
Give the reported size of the inhibition zone, S. aureus b) for this compound. CCC1OC(=O)C(C)C(OC2CC(C)(OC)CC(C)O2)C(C)C(OC2CC(N(C)C)CC(C)O2)C(C)(O)CC(C)CN(C)C(C)C(O)C1(C)O (stereo not shown) [PP006]
<1 mm
